# SYSTEM_NAME: Human immunodeficiency virus type 1 reverse transcriptase (Human immunodeficiency virus 1, UniProt Q72547, P236L)
# ASSAY_REMARKS: Inhibition of HIV-1 reverse transcriptase (P236L)
MEASURED_METRIC: pIC50
Scale note: pIC50 = -log10(concentration in M).

Here is how some compounds turned out for pIC50.
Nc1cc(Cl)nc(SC/C=C/c2ccccc2)n1 = 7.15
Nc1cc(Cl)nc(SCc2ccc(Cl)c(Cl)c2)n1 = 7.21

Query (compound): Nc1cc(C(F)(F)F)nc(SCc2ccc3ccccc3c2)n1 ; field requested: pIC50
6.37

// same read-out, input: Cc1cccc(CSc2nc(N)cc(Cl)n2)c1
7.30

Another compound: Nc1cc(Cl)nc(SCc2cccc(Br)c2)n1
6.85

Another: Nc1cc(Cl)nc(SCc2ccccc2)n1
5.83

For CCN(CC)C(=O)/C=C/CSc1nc(N)cc(Cl)n1 then?
7.30

----------
Consider the following compounds and their measured inhibition readings.
# SYSTEM_NAME: Human immunodeficiency virus type 1 reverse transcriptase (Human immunodeficiency virus 1) (UniProt Q72547)
# ASSAY_REMARKS: inhibitory activity against HIV-1 reverse transcriptase (wild type) at 10 uM dose (IC50 determined in 8 drug concentrations)
Please give a number only; it is taken to be in %.

Guide cases for inhibition, answers given:
Nc1cc(Cl)nc(SCc2ccc3ccccc3c2)n1 = 87
CCN(CC)C(=O)/C=C/CSc1nc(N)cc(Cl)n1 = 98
CN(C)C(=O)/C=C/CSc1nc(N)cc(Cl)n1 = 99

// next item, inhibition requested
Given Cc1cccc(CSc2nc(N)cc(Cl)n2)c1 , state its recorded inhibition.
96

----------
# Tested on: MT4
# ASSAY_REMARKS: concentration of drug that inhibited p24 production by 90% in infected MT-4 cells against HIV-1MF-DLV
# Type: functional
# TEST_CONDITIONS: Homo sapiens
MEASURED_METRIC: IC90 (nM)
Write the number in nM without appending the unit.

Tell me the measured IC90 of Cc1cccc(CSc2nc(N)cc(Cl)n2)c1 , please.
1760

Lookup Nc1cc(Cl)nc(SCc2cccc(Br)c2)n1
4520

Next record, please: Nc1cc(Cl)nc(SC/C=C/c2ccccc2)n1
5050

Try Nc1cc(Cl)nc(SCc2ccc3ccccc3c2)n1 next.
2760

Same lookup for CN(C)C(=O)/C=C/CSc1nc(N)cc(Cl)n1 , please.
740

Thanks! And CCN(CC)C(=O)/C=C/CSc1nc(N)cc(Cl)n1 ?
110

----------
# Tested on: Human immunodeficiency virus type 1 reverse transcriptase (Human immunodeficiency virus 1), Q72547 [P236L]
# ASSAY_REMARKS: Inhibitory activity against HIV-1 reverse transcriptase (P236L) at 10 uM dose
Respond with True for inhibition values of 6% and above, False for values below.

Some solved cases for reference:
Cc1ccc(CSc2nc(N)cc(Cl)n2)cc1 = False
Nc1cc(Cl)nc(SCc2cc(Cl)cc(Cl)c2)n1 = True
Nc1cc(Cl)nc(OCc2cccc3ccccc23)n1 = True

Textbook exercise: given the entry Nc1cc(Cl)nc(SCc2ccc(Cl)c(Cl)c2)n1 , state whether its inhibition is greater than or equal to 6%.
True

Now give it for Cc1ccccc1CSc1nc(N)cc(Cl)n1 too.
False

Try the molecule Nc1cc(Cl)nc(OCc2ccc3ccccc3c2)n1
True

----------
# SYSTEM_NAME: Human immunodeficiency virus type 1 reverse transcriptase (Human immunodeficiency virus 1)
# ASSAY_REMARKS: Inhibitory activity against HIV-1 reverse transcriptase (wild type) at 10 uM dose
Everything with inhibition lower than 20% is rule not met; everything else, including exactly 20%, is rule met.

Some solved entries appear below for comparison.
Nc1cc(Cl)nc(SCC(=O)O)n1 = rule not met
CCOC(=O)c1cc(N)nc(SCc2ccc3ccccc3c2)n1 = rule not met
Nc1cc(N2CCCC2)nc(SCc2ccccc2)n1 = rule not met
CC(=O)Nc1cc(Cl)nc(SCc2ccc3ccccc3c2)n1 = rule met
Nc1cc(Cl)nc([S+]([O-])Cc2ccc3ccccc3c2)n1 (configuration not stated) = rule met
COc1ccc(CSc2nc(N)cc(Cl)n2)cc1 = rule met
COC(=O)/C=C/CSc1nc(N)cc(Cl)n1 = rule met
CC(C)(C)c1ccc(CSc2nc(N)cc(Cl)n2)cc1 = rule met
Clc1cc(N2CCCC2)nc(SCc2ccccc2)n1 = rule met
Nc1cc(Cl)nc(SCC2=CCCc3ccccc32)n1 = rule met

Lab note: next compound to report on.
Entry Clc1cc(Cl)nc(SCc2ccc3ccccc3c2)n1 : is its inhibition no less than 20%?
rule not met

----------
# System: Human immunodeficiency virus type 1 reverse transcriptase (Human immunodeficiency virus 1), Q72547 [P236L]
# ASSAY_REMARKS: Inhibitory activity against HIV-1 reverse transcriptase (P236L) at 10 uM dose
MEASURED_METRIC: inhibition (%)
Lab book: enter the figure in %, no units written.

Below are worked cases with known answers.
Clc1ccnc(SCc2ccc3ccccc3c2)n1 = 86
Nc1cc(Cl)nc(SCC2=CCCc3ccccc32)n1 = 88
Nc1cc(Cl)nc(SC/C=C/c2ccccc2)n1 = 98
Clc1cc(-n2ccnc2)nc(SCc2ccc3ccccc3c2)n1 = 17
COC(=O)c1cccc(CSc2nc(N)cc(Cl)n2)c1 = 94

What inhibition value was documented for this compound, N#Cc1cc(N)nc(SCc2ccc3ccccc3c2)n1 ?
93

Please do the same for COc1cccc(CSc2nc(N)cc(Cl)n2)c1 as well.
97

Then what about the compound Nc1cc(Cl)nc(SCc2cccc(F)c2)n1 ?
79

Param item: Nc1cc(Cl)nc(SCc2cccc(C(F)(F)F)c2)n1
91

# repeat for Nc1cc(N2CCCC2)nc(SCc2ccccc2)n1
0

Now consider Nc1cc(Cl)nc(CCc2ccc3ccccc3c2)n1 and answer again.
12

----------
Below is a list of entries, each paired with its recorded inhibition value.
# System: Human immunodeficiency virus type 1 reverse transcriptase (Human immunodeficiency virus 1), Q72547 [P236L]
# ASSAY_REMARKS: inhibitory activity against HIV-1 reverse transcriptase (P236L) at 10 uM dose (IC50 determined in 8 drug concentrations)
Give the value, in units of %, as a plain number.

Below, each entry is followed by its recorded inhibition result.
Nc1cc(Cl)nc(SCc2ccc3ccccc3c2)n1 = 96
CN(C)C(=O)/C=C/CSc1nc(N)cc(Cl)n1 = 99
CCN(CC)C(=O)/C=C/CSc1nc(N)cc(Cl)n1 = 99

Now for the compound whose inhibition we want.
What value of measured inhibition is listed for Cc1cccc(CSc2nc(N)cc(Cl)n2)c1 ?
98

----------
# Tested on: Human immunodeficiency virus type 1 reverse transcriptase (Human immunodeficiency virus 1), Q72547 [P236L]
# ASSAY_REMARKS: Inhibitory activity against HIV-1 reverse transcriptase (P236L) at 10 uM dose
inhibition by entry:
Give a bare numeral; the unit % is implied.

CCOC(=O)c1cc(N)nc(SCc2ccc3ccccc3c2)n1 = 24
CCN(CC)C(=O)CSc1nc(N)cc(Cl)n1 = 14
Cc1cccc(COc2nc(N)cc(Cl)n2)c1 = 72
Nc1cc(Cl)nc(SCC(=O)O)n1 = 0

I would be grateful if you could share the reported inhibition for Clc1cc(-c2ccccc2)nc(SCc2ccc3ccccc3c2)n1 .
5

And then CCOC(=O)CCSc1nc(N)cc(Cl)n1 , what is it?
7

Here is the next compound: CC(=O)Nc1cc(Cl)nc(SCc2ccc3ccccc3c2)n1
53

Here is the next compound: Nc1cc(Cl)nc(SCc2ccc3c(c2)OCO3)n1
95

Likewise for Nc1cc(Cl)nc(SCCc2ccccc2)n1 ?
12

Nc1cc(Cl)nc(SCc2ccc(-c3ccccc3)cc2)n1 , same question.
20

Follow-up entry: Nc1cc(Cl)nc(SCc2cccc3ccccc23)n1
96

// repeat for C/C=C/CSc1nc(N)cc(Cl)n1 and report
47

Input CCNC(=O)/C=C/CSc1nc(N)cc(Cl)n1
55

----------
# SYSTEM_NAME: Human immunodeficiency virus type 1 reverse transcriptase (Human immunodeficiency virus 1, UniProt Q72547)
# ASSAY_REMARKS: Inhibition of HIV-1 reverse transcriptase (wild type)
pIC50: −log10 of the molar value.
Threshold check on pIC50: at or above 6 gives True, strictly below gives False.

Study these solved cases before continuing.
Nc1cc(Cl)nc(SCc2ccccc2)n1 = False
Nc1cc(Cl)nc(SCC2=CCCc3ccccc32)n1 = False
CN(C)C(=O)/C=C/CSc1nc(N)cc(Cl)n1 = True
Nc1cc(Cl)nc(SCc2ccc(Cl)c(Cl)c2)n1 = True
Cc1cccc(CSc2nc(N)cc(Cl)n2)c1 = True

Check the entry COC(=O)/C=C/CSc1nc(N)cc(Cl)n1 : does pIC50 equal or exceed 6?
False

Another compound to look at: Nc1cc(Cl)nc(SC/C=C/c2ccccc2)n1
True

Repeat for the following compound: Nc1cc(C(F)(F)F)nc(SCc2ccc3ccccc3c2)n1
True

Similarly, Nc1cc(Cl)nc(SCc2ccc3ccccc3c2)n1 ?
True

For COC(=O)c1cccc(CSc2nc(N)cc(Cl)n2)c1 then?
True

And what about the compound CCN(CC)C(=O)/C=C/CSc1nc(N)cc(Cl)n1 ?
True
